# System: Staphylococcus aureus 693E
# procedure.details: In vitro antibacterial activity against resistant strains (MIC)
# Assay type: cell-based
# study.conditions: resistant strain Staphylococcus aureus 693E; 2-fold agar dilution; methicillin resistant strains 48 hours at 30° C.; read-out: minimum inhibitory concentration (MIC)
measure.name: MIC (µg/mL)
Answer with a number only, understood to be in µg/mL.

Quick one: give measured MIC for `CCON=C1CN(c2c(F)c(N)c3c(=O)c(C(=O)O)cn(C4CC4)c3c2F)CC12CNC2.CS(=O)(=O)O`
0.013

Quick one: give measured MIC for O=C(O)c1cn(C2CC2)c2cc(N3CCNCC3)c(F)cc2c1=O [Ciprofloxacin, ciprofloxacin, reference compound]
0.391

Quick one: give measured MIC for `CON=C1CN(c2nc3c(cc2F)c(=O)c(C(=O)O)cn3C2CC2)CC12CNC2.CS(=O)(=O)O`
0.049

Quick one: give measured MIC for C[C@@H]1CN(c2c(F)c(N)c3c(=O)c(C(=O)O)cn(C4CC4)c3c2F)C[C@H](C)N1 [Sparfloxacin, sparfloxacin, reference compound]
0.049

Quick one: give measured MIC for `CON=C1CN(c2c(F)c(N)c3c(=O)c(C(=O)O)cn(C4CC4)c3c2F)CC12CN(C)C2`
0.013
